tgt: GlcNAc(a1-3)Gal(b1-4)GlcNAc
methodSummary: glycan array binding signal (z-score within array); higher = stronger binding
experimentalContext: glycan notation: IUPAC condensed, linker removed
Only a selection was taken, and the strongest signals are over-represented in it overall.
Record form. Attribute: glycan array binding signal (z-score). Fill in for each entry.

Quick note, glycan array binding signal (z-score) for Epa3 (Candida glabrata), Q6VBI8_CANGB (protein) MGSSHHHHHHSSGLVPRGSHMNDLGFSLFEKRELSSQNPFGYPIGCSPQDVAIIPGLTMELYSYPIVSGTPPNCYDASYVDPEYPRTGYLKRKMVGKSTGVTGNLNYKYSVEKACMVKYGNLPAGYNYNEPLTVSNFTMILYGYFKAQTTGLHTFFVNADDLLYINFGAGNAFDCCKREDSKTKLGEYVAYDIWHVDSSKNKVSLFLEKDLYYPIRMFFNNIGKDSSLDLSFSVNGATDQISDFSGYLYSVPDQPDTCPAHIGYDTTCR landed at -0.2

Quick note, glycan array binding signal (z-score) for GH98CBM51-1 (Streptococcus pneumoniae) (protein) MTYLSDMDWSSATHGDIDKTKTVQKDAPFTTGNKGEHTKISLLTSDDKVKYFDKGIGTVADSPSVISYDISGQGFEKFETYIGIDQSANSSRSDHAVVDRIEIEIDGKVVYSSSVTNPEGFRYNTQAQFISVTIPQNAKKISLKSFAGEHTWGDEVVFADAKLIKTVST landed at -0.193

Quick note, glycan array binding signal (z-score) for Epa3to2 (Candida glabrata) (protein) MGSSHHHHHHSSGLVPRGSHMKRELSSQNPFGYPIGCSPQDVAIIPGLTMELYSYPIVSGTPPNCYDASYVDPEYPRTGYLKRKMVGKSTGVTGNLNYKYSVEKACMVKYGNLPAGYNYNEPLTVSNFTMILYGYFKAQTTGLHTFFVNADDLLYINFGAGNAFDCCKREDSKTKLGEYVAYDIWHVDSSKNKVSLFLEKDLYYPIRMFFNNRDNNSSLDLSFSVNGATDQISDFSGYLYSVPDQPDTCPAHIGYDTTCR landed at -1.07
